B1: tRNA (parent)
chain: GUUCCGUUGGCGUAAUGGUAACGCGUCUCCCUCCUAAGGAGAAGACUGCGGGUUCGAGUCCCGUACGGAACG

# Variants of: B1
# Assay Comment: yeast fitness, log relative to wild type (ln ratio); higher = fitter; tRNA-Arg(CCU), competitive growth, 37 C, 1 M NaCl
Quantity: yeast fitness (ln)
Give bare numbers.

Take a look at these entries with their results.
* G1A U2G C27U C46U A70U C71U | -0.0144
* G6A C46U C66U A70U C71U | -0.423
* G1A G6U C27U A43C C66U A69G A70U | -0.469
* G1A U2G G6A C27U C46U C66U A69G C71U | -0.332

Take each entry in turn and give its yeast fitness (ln).
1. U2G C27U A43C C66A A69G C71U
2. G1A U2C A43C C46U A69G A70U

1: -0.355; 2: -0.0156
